# Tested on: NOMO1
# assay.remarks: cell viability relative to DMSO control; higher = less cytotoxic
# test.conditions: RPMI 5 mM glucose + 10% FBS; 48 h; 0.00702 µM
measurement.label: cell viability (%)
Give your result in % as a bare value.

NOMO1 data for C[C@]12CCC3c4ccc(O)cc4CCC3C1CCC2=O (stereo not given in full) ; its cell viability: 92.3

Value sought: cell viability, system NOMO1, item `Cc1cc(Nc2cc(N3CCN(C)CC3)nc(/C=C/c3ccccc3)n2)n[nH]1` . Result: 110

Tested system NOMO1; cell viability recorded for CC(C)C1CCC(C(=O)N[C@H](Cc2ccccc2)C(=O)O)CC1 (stereo not given in full) was 91.8

NOMO1 data for `COCCn1c2c([n+](Cc3cnccn3)c1C)C(=O)c1ccccc1C2=O` ; its cell viability: 113

Value sought: cell viability, system NOMO1, item `Cc1cn2cc(C(=O)N(C)CCO)cc(N[C@@H]3CCOc4cccc(C)c43)c2n1` . Result: 107

---

What cell viability was measured for each of the following?
# Tested on: SEM cells
# assay.remarks: cell viability relative to DMSO control; higher = less cytotoxic
# test.conditions: RPMI 5 mM glucose + 10% FBS; 48 h; 0.00234 µM
The reply should be a number in %, with the unit left off.

So, `NC(=O)c1cccc(-c2cc(Nc3ccc(OC(F)(F)F)cc3)ncn2)c1` ? Its cell viability was 116

Reported cell viability of `CCc1ccc(OCc2ccccc2C(=O)Nc2ccc3nc(C)cc(N)c3c2)cc1` : 102

Data point: CN(CCOc1ccc(CC2SC(=O)NC2=O)cc1)c1ccccn1 (stereo not given) ; cell viability = 94.7

Lab note: measured cell viability of `CN1C(=O)/C(=C(NC2=CC=C(I)C=C2F)\C3=C1\N=C/N(C[C@@H](O)CO)C3=O)F` was 98.6

Entry `Cc1ccc(C(=O)Nc2cccc(C(F)(F)F)c2)cc1Nc1nc(-c2cccnc2)nc2c1cnn2C` , cell viability reported as 103

---

# Tested on: SEM cells
# assay.remarks: cell viability relative to DMSO control; higher = less cytotoxic
# test.conditions: RPMI 5 mM glucose + 10% FBS; 48 h; 15.4 µM
measurement.label: cell viability (%)
// return numeric value only (unit: %, not printed)

# cell viability of `C[S+](=O)([O-])Oc1ccc2c(NC(N)=O)c(C(=O)c3ccc(Cl)cc3Cl)oc2c1` = 122

// `O=C(/C=C/c1ccc(/C=C/C(=O)Nc2ccc(C3=NCCN3)cc2)cc1)Nc1ccc(C2=NCCN2)cc1` : cell viability value = 72.8

Looking up `CCCN[C@H]1CCc2nc(N)sc2C1` , I see its cell viability listed as 105

For CCNC(=O)CCC/C=C\C[C@@H]1[C@@H](/C=C/C(O)CCc2ccccc2)[C@@H](O)C[C@@H]1O (stereo partly drawn) the compound record lists cell viability as 98.2

For `Nc1ccc(C(=O)Nc2cccc(-c3nc(N4CCOCC4)c4oc5ncccc5c4n3)c2)cn1` the compound record lists cell viability as 38.9

Record `Cc1cc(Nc2ncc3c(n2)N(C)C(=O)N(c2cc(NC(=O)c4cccc(C(F)(F)F)c4)ccc2C)C3)n(C)n1` . Reported cell viability: 5.5

Quick note, cell viability for `Oc1cc(-c2nc(-c3ccccc3)[nH]c2-c2ccncc2)ccc1Cl` landed at 111

Record summary for `c1cc(-c2cnn3cc(-c4ccc(OCCN5CCCCC5)cc4)cnc23)ccn1` : reported cell viability = 40.4

---

# Tested on: SEM cells
# assay.remarks: AUC of viability dose-response curve (% viability x log10 dose units); higher = less sensitive
# test.conditions: HPLM + 10% dialyzed FBS; 48 h
measurement.label: AUC of viability dose-response curve
No unit in the answer, only the number.

// field: AUC of viability dose-response curve; key: `Cc1ccc(C(=O)Nc2cccc(C(F)(F)F)c2)cc1Nc1nc(-c2cccnc2)nc2c1cnn2C` ; value = 362

response.value for `CCCCCNC(=N)N/N=C/c1c[nH]c2ccc(OC)cc12` (field: AUC of viability dose-response curve) = 426

The recorded AUC of viability dose-response curve for `COc1cc2c(cc1OC)[C@@H]1Cc3ccc(OC)c(OC)c3CN1CC2` is 473

Sure, the documented AUC of viability dose-response curve for `CC/C=C\C[C@H]1C(=O)CC[C@@H]1CC(=O)OC` is 469

The compound `Clc2cccc(Cl)c2\N=C1/NCCN1` showed AUC of viability dose-response curve equal to 414

AUC of viability dose-response curve reported for this compound `CN1C(=O)c2sccc2N(C)c2nc(Nc3ccc([S+](N)(=O)[O-])cc3)ncc21` : 345

Entry `O=C(c1cncc(Br)c1)N1CCC(N2CCCC2)CC1` ; AUC of viability dose-response curve = 469

Entry under test: `CC[C@H]1OC(=O)[C@H](C)[C@@H](O[C@H]2C[C@@](C)(OC)[C@@H](O)[C@H](C)O2)[C@H](C)[C@@H](O[C@@H]2O[C@H](C)C[C@H](N(C)C)[C@H]2O)[C@](C)(OC)C[C@@H](C)C(=O)[C@H](C)[C@@H](O)[C@]1(C)O` . Its AUC of viability dose-response curve was 452

---

# Test system: NOMO1
# assay.remarks: cell viability relative to DMSO control; higher = less cytotoxic
# test.conditions: RPMI 5 mM glucose + 10% dialyzed FBS; 48 h; 46.1 µM
measurement.label: cell viability (%)
Report the figure in % without appending any unit label.

According to the records, this compound CCC(CCCC)COC(=O)C(\C#N)=C(\c1ccccc1)c2ccccc2 (centres undefined) displays cell viability of 96.2

// sample CN(C)CCCC1(c2ccc(F)cc2)OCc2cc(C#N)ccc21 (centres undefined) , its cell viability was 72.6

GET /value?item= `CN1C(=O)c2sccc2N(C)c2nc(Nc3ccc([S+](N)(=O)[O-])cc3)ncc21` &field=cell viability returns 4.45

Given item `COc1ccc(CCC(=O)c2c(O)cc(O[C@@H]3O[C@H](CO)[C@@H](O)[C@H](O)[C@H]3O[C@@H]3O[C@@H](C)[C@H](O)[C@@H](O)[C@H]3O)cc2O)cc1O` , the value recorded as its cell viability is 34.4

Field cell viability (entry `CCCOc1ccc(C(=O)OCCN(CC)CC)cc1N` ) reads 121

Record `Cc1ccc2nc(NCCN)c3ncc(C)n3c2c1` , field cell viability: 7.57

Lookup result for NCCCC(N)(C(=O)O)C(F)F (centres undefined) ; measured cell viability: 90.1

Form field cell viability, entry `CC1(C)SCCN([S+](=O)([O-])c2ccc(OCC#CCO)cc2)[C@H]1C(=O)NO` : 93.3

The value of cell viability measured for the compound `CC(=O)SC[C@@H](C)C(=O)N1CCC[C@H]1C(=O)N[C@@H](Cc1ccccc1)C(=O)O` turned out to be 91.5

---

Please provide measured cell viability for the entries that follow.
# Test system: P12-Ichikawa
# assay.remarks: cell viability relative to DMSO control; higher = less cytotoxic
# test.conditions: HPLM + 10% dialyzed FBS; 48 h; 15.4 µM
Give a bare numeral; the unit % is implied.

For reference, reported cell viability for `Oc1cc(-c2nc(-c3ccccc3)[nH]c2-c2ccncc2)ccc1Cl` stands at 82.9

So for `Cc1ccc(C(=O)Nc2cccc(C(F)(F)F)c2)cc1Nc1nc(-c2cccnc2)nc2c1cnn2C` , the logged cell viability turned out to be 86.7

Entry Cc1c(N)nc([C@H](CC(N)=O)NC[C@@H](N)C(N)=O)nc1C(=O)N[C@H](C(=O)N[C@@H](C)[C@H](O)[C@@H](C)C(=O)N[C@@H](C(=O)NCCc1nc(-c2nc(C(=O)NCCC[S+](C)C)cs2)cs1)[C@@H](C)O)C(O[C@H]1O[C@H](CO)[C@H](O)[C@@H](O)[C@H]1O[C@H]1O[C@H](CO)[C@@H](O)[C@H](OC(N)=O)[C@@H]1O)c1c[nH]cn1 (some centres undefined) ; cell viability = 28.3

The reported cell viability of the compound `CCCCc1ccc2[nH]c(NC(=O)OC)nc2c1` was 16.2

response.value for `CCCOc1ccc(C(=O)OCCN(CC)CC)cc1N` (field: cell viability) = 119

Reported cell viability for `CCNC(=O)Nc1ccc(Oc2ncnc(N)c2/C=N/OC)cc1Cl` was 101

cell viability recorded for this compound, `Clc2cccc(Cl)c2\N=C1/NCCN1` , is 122

For record `CCCCCNC(=N)N/N=C/c1c[nH]c2ccc(OC)cc12` the listed cell viability is 59.8

GET /value?item= `COc1ccc(F)c(F)c1C(=O)c1cnc(NC2CCN([S+](C)(=O)[O-])CC2)nc1N` &field=cell viability returns 67.6

---

# System: NOMO1
# assay.remarks: AUC of viability dose-response curve (% viability x log10 dose units); higher = less sensitive
# test.conditions: RPMI 5 mM glucose + 10% FBS; 48 h
measurement.label: AUC of viability dose-response curve
Provide a numeric answer; units are not to be included.

Measured AUC of viability dose-response curve, `NC(=O)c1cnccn1` : 471

Please fill in: AUC of viability dose-response curve reported for `C[C@@H]1[C@H]\2[C@H](O)[C@H]3[C@H](N(C)C)\C(=C(C(N)=O)/C(=O)[C@@]3(O)\C(=C2C(=O)C4=C(O)C=CC=C14)O)O` = 465

The molecule listed as `Cc1cn2cc(C(=O)N(C)CCO)cc(N[C@@H]3CCOc4cccc(C)c43)c2n1` shows AUC of viability dose-response curve equal to 422

Kindly note the recorded AUC of viability dose-response curve for `COc1ccc(CCC(=O)c2c(O)cc(O[C@@H]3O[C@H](CO)[C@@H](O)[C@H](O)[C@H]3O[C@@H]3O[C@@H](C)[C@H](O)[C@@H](O)[C@H]3O)cc2O)cc1O` , which is 426

// `OC(=O)\C1=C\N(C2CC2)C3=CC(=C(F)C=C3C1=O)N4CCNCC4` : AUC of viability dose-response curve value = 428
